measurementNotes: Multiple ascending dose (MAD) study: multiple-dose pharmacokinetics
Type: in vivo, human
appliedConditions: human, plasma, oral, 200 mg, 200 mg BID, Day 14, 0 hr post-dose (312 h); read-out: Pre-dose (trough) plasma concentration, Mean
Procedure: A multiple ascending dose (MAD) study of Compound 1 with two additional single-dose cohorts was also completed. […] In the MAD study, multiple-dose pharmacokinetics and pharmacodynamics of Compound 1 were evaluated in four dose groups administered Compound 1 (40, 80, 120 and 200 mg BID) in the fasted state for 14-days (Table 3). […]
property: concentration at 312 h (ng/mL)

INSERT INTO measurements (molecule, property, result) VALUES
  ('CC(=O)c1nn(CC(=O)N2[C@H](C(=O)Nc3nc(Br)ccc3C)C[C@@]3(C)C[C@@H]23)c2ccc(-c3cnc(C)nc3)cc12 [Compound 1]', 'concentration at 312 h', 415);
